Quick list: IC50 per entry.
- SYSTEM UNDER TEST: BRD4 BD1 (Homo sapiens, UniProt O60885)
- PROCEDURE SUMMARY: AlphaScreen binding assay, BRD4 Bromodomain 1

Please review the following examples before continuing.
[
  {
    "MOLECULE": "CC(=O)N1c2ccc(-c3ccc(NS(C)(=O)=O)c(C)c3)cc2N(C(=O)C2CC2)C[C@@H]1C",
    "IC50": "100 to 1000 nM"
  },
  {
    "MOLECULE": "CC(=O)N1c2ccc(-c3ccc(S(C)(=O)=O)cc3)cc2N(C(=O)OCC(C)C)C[C@@H]1C",
    "IC50": "100 to 1000 nM"
  },
  {
    "MOLECULE": "CC(=O)N1c2ccc(-c3ccc(N(C)S(C)(=O)=O)cc3)cc2N(C(=O)Oc2cccnc2)C[C@@H]1C",
    "IC50": "100 to 1000 nM"
  }
]

[Q] Answer with the recorded IC50 of `COC(=O)N1c2ccc(-c3cnn(CC4CCS(=O)(=O)CC4)c3)cc2N(C(=O)OC(C)C)C[C@@H]1C` only.
[A] 100 to 1000 nM

[Q] Answer with the recorded IC50 of `CC(=O)N1c2ccccc2N(S(=O)(=O)c2cn(C)c(C)n2)C[C@@H]1C` only.
[A] > 10000 nM

[Q] Answer with the recorded IC50 of `CC(=O)N1c2ccc(-c3ccc(N4CCCS4(=O)=O)cc3)cc2N(C(=O)Oc2ccc(F)cc2F)C[C@@H]1C` only.
[A] 100 to 1000 nM

[Q] Answer with the recorded IC50 of `CC(=O)N1c2ccccc2N(C(=O)c2cnc(C)cn2)C[C@@H]1C` only.
[A] > 10000 nM

[Q] Answer with the recorded IC50 of `CC(=O)N1c2ccc(-c3ccc(F)c(S(C)(=O)=O)c3)cc2N(C(=O)OC(C)C)C[C@@H]1C` only.
[A] 1000 to 10000 nM

[Q] Answer with the recorded IC50 of `CC(=O)N1c2cc(N)c(-c3cnn(C4CC4)c3)cc2N(C(=O)OC(C)C)C[C@@H]1C` only.
[A] 100 to 1000 nM

[Q] Answer with the recorded IC50 of `CC(=O)N1c2ccc(-c3cnn(C4COC4)c3)cc2N(C(=O)C(C)(C)Cl)C[C@@H]1C` only.
[A] > 10000 nM

[Q] Answer with the recorded IC50 of CC(=O)N1c2ccc(-c3cccc4[nH]ccc34)cc2N(C(=O)c2ccco2)CC1C (stereo not shown) only.
[A] 1000 to 10000 nM

[Q] Answer with the recorded IC50 of `CCS(=O)(=O)Nc1cccc(-c2ccc3c(c2)N(C(=O)C2CCC2)C[C@H](C)N3C(C)=O)c1` only.
[A] 1000 to 10000 nM

[Q] Answer with the recorded IC50 of `CC(=O)N1c2ccccc2N(C(=O)c2cccc(Cl)c2)C[C@@H]1C` only.
[A] > 10000 nM

[Q] Answer with the recorded IC50 of `CC(=O)N1c2ccccc2N(C(=O)c2cc(C)on2)C[C@@H]1C` only.
[A] > 10000 nM

[Q] Answer with the recorded IC50 of `CC(=O)N1c2ccc(-c3cccnc3)cc2N(C(=O)c2ccco2)C[C@@H]1C` only.
[A] 1000 to 10000 nM

[Q] Answer with the recorded IC50 of `CC(=O)N1c2ccc(-c3cnn(C4COC4)c3)cc2N(C(=O)Oc2ccccn2)C[C@@H]1C` only.
[A] < 100 nM
